- EXPERIMENT: MM1S cell viability effects, profiling panel, calcein-AM fluorescence, 48 h, basal (AID 1165);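 note: viability of MM1S multiple myeloma cells under basal unstimulated conditions; test concentration not given here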
- MEASUREMENT_CONTEXT: higher = more signal
So basically: z-score at 0.2 or higher? That is satisfied. Lower than 0.2? That is not satisfied.

# example entries with known answers
COMPOUND	ASSIGNED_CATEGORY
CC(C)C(CO)N1C(=O)[C@@H]2[C@H]3C(=O)OCC=C[C@H]3OC23C=CCN(C(C)(C)C)C(=O)[C@@H]13 (some centres not stated)	satisfied
CCOC(=O)C[C@H]1[C@H](OC(=O)c2ccc(-c3ccccc3)cc2)[C@@H](NC(=O)Cc2ccc(OC)cc2)c2cc(OCCCO)ccc2N1C(=O)Cc1ccc(OC)cc1	not satisfied
COCCOC(=O)N1C(=O)[C@@]2(c3cc(C#CCC(C(=O)OC)C(=O)OC)ccc31)[C@H](C(=O)NC[C@H](O)c1ccccc1)[C@H]1C(=O)O[C@H](c3ccccc3)[C@H](c3ccccc3)N1[C@@H]2c1ccc(OCCO)cc1	not satisfied

Ask: Check the entry Nc1cc(Br)ccc1C(=O)O : does z-score equal or exceed 0.2?
Reply: satisfied

Ask: Check the entry CCOC(=O)C[C@H]1[C@H](OC(=O)c2ccc(-c3ccccc3)cc2)[C@@H](NC(=O)CC(C)C)c2cc(OCCCO)ccc2N1C(=O)c1ccccc1 : does z-score equal or exceed 0.2?
Reply: not satisfied

Ask: Check the entry COc1cc2c(cc1O)C(c1ccc(CN3CCCC3)cc1)N(C)CC2 (configuration not stated) : does z-score equal or exceed 0.2?
Reply: satisfied

Ask: Check the entry COCC(=C=CC[C@@H](O)c1ccc(OCCO)cc1)CCO : does z-score equal or exceed 0.2?
Reply: satisfied

###

- TARGET_OR_TEST_SYSTEM: NADPH oxidase 4 (Homo sapiens) (UniProt Q9NPH5)
- Sequence (Q9NPH5 whole entry, looked up): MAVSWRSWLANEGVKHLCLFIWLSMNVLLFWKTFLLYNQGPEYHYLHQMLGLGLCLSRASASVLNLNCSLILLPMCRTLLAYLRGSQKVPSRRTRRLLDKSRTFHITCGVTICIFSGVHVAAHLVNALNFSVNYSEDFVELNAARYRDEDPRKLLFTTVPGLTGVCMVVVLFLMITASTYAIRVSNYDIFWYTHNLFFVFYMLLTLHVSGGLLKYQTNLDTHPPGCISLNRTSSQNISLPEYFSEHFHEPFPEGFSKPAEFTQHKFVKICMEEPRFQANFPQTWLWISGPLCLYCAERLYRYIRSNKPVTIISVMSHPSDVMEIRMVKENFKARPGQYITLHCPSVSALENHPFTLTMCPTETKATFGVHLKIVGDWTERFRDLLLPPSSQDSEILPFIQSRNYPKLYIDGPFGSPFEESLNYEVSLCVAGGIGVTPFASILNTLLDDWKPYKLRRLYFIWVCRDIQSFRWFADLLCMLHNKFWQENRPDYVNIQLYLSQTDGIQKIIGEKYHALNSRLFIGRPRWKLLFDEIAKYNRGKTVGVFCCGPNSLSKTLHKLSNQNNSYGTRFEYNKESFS
- EXPERIMENT: NOX4-dependent H2O2 signal modulators, primary screen, NOX inhibitor project, cell-based, HEK293-NOX4, tetracycline-induced, Amplex Red fluorescence (AID 1160)
- MEASUREMENT_CONTEXT: 45 min, higher = more signal, called active from +8 up or from −8 down
Activity calls are given as the source filed them.
Measured z-score accompanies every entry in the list below.

Below are worked cases with known answers.
COMPOUND	VALUE_TYPE	RESULT
CCN(CC)c1ccc(N2CC=CC34O[C@@H]5C=CCCOC(=O)C5[C@H]3C(=O)N(CCO)[C@@H]4C2=O)cc1 (some centres undefined)	z-score	-0.513 (inactive)
CCCNC(=O)[C@@]1(C)c2ccccc2C(=O)N(Cc2ccccc2)[C@H]1c1ccc(CO)cc1	z-score	-0.0486 (inactive)
CC(C)C[C@@H]1NC(=O)[C@@H]2C[C@H](C(=O)NCCCCCC[N+](C)(C)C)[C@H](c3cccc(OCCO)c3)N2C1=O	z-score	1.31 (inactive)

Ask: Determine reported z-score for COc1ccc([Si](C)(C)[C@@H]2[C@@H](CCn3cc([C@H](O)c4ccccc4)nn3)O[C@]3(C(=O)N(Cc4cccc(N5C(=O)c6cccc7cccc5c67)c4)c4ccccc43)[C@H]2C)cc1 ; test system: NADPH oxidase 4 (Homo sapiens) (UniProt Q9NPH5).
Reply: 1.48 (inactive)

###

- TARGET_OR_TEST_SYSTEM: Follistatin (Homo sapiens) (UniProt P19883)
- Sequence (P19883 whole entry, looked up): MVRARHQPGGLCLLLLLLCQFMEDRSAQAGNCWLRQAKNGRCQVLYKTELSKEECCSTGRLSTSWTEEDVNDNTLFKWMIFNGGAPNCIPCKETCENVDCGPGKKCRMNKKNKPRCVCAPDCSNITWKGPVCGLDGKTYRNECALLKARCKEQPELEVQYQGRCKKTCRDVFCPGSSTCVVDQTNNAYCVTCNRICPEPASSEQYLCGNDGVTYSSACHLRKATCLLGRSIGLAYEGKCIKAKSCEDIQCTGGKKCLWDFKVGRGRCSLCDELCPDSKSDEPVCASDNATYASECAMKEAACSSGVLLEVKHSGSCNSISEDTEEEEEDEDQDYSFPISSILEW
- EXPERIMENT: follistatin binders on small-molecule microarrays, primary screen, biochemical, small-molecule microarray, 635/667 nm fluorescence (AID 1132)
- MEASUREMENT_CONTEXT: FST binding, 635 nm fluorescence, higher = more signal
So basically: composite z-score at 1 or higher? That is met. Lower than 1? That is not met.

# example entries with known answers
COMPOUND	ASSIGNED_CATEGORY
[N-]=[N+]=Nc1ccccc1[C@@H]1OC(c2ccc(OCCCO)cc2)=N[C@]1(Cc1ccccc1)C(=O)NCc1ccccc1	not met
COc1cc(NN2C(C(O)c3ccc(I)cc3)C=CC3C(=O)N(c4ccccc4)C(=O)C32)cc(OC)c1OC (configuration not stated)	met
O=C1C[C@@](C(=O)NCC(F)(F)F)(c2ccc([N+](=O)[O-])cc2)[C@@H](c2ccc(CO)cc2)N1CC12CC3CC(CC(C3)C1)C2	met
C=CCNC(=O)[C@H]1[C@@H]2C(=O)O[C@@H](c3ccccc3)[C@@H](c3ccccc3)N2[C@@H](c2ccc(OCCO)cc2)[C@]12C(=O)N(C(=O)OCCOC)c1ccc(C#Cc3ccc(OC)cc3)cc12	met
CC(C)(C)OC(=O)CC[C@]12N=C(c3ccc(OCCCO)cc3)O[C@H]1c1ccccc1N(Cc1ccccc1)C2=O	met
COc1ccc(C(O)C2C=CC3C(=O)N(c4ccccc4)C(=O)C3N2Nc2ccc(C(C)C)cc2)c2ccccc12 (configuration not stated)	not met

Kindly review the next compound as well.
Ask: Check the entry C=CCN1C(=O)[C@]2(O[C@H](CCO)[C@@H]([Si](C)(C)c3ccc(OC)cc3)[C@@H]2C)c2cc(N3C(=O)COc4ccccc43)ccc21 : does composite z-score equal or exceed 1?
Reply: not met

###

- EXPERIMENT: A549 cell viability effects, profiling panel, calcein-AM fluorescence, 48 h, basal (AID 1162); note: test concentration not given here
- MEASUREMENT_CONTEXT: higher = more signal
VALUE_TYPE: z-score
Answer with the value's number alone.

Ask: Read off the recorded z-score for C=C[C@@H](OC)[C@H](OC(=O)Nc1ccc(OC)cc1)c1ccc(OC)c(O)c1
Reply: -0.464

Ask: Read off the recorded z-score for CCCCC(=C=CC[C@H](O)c1ccc(OCCO)cc1)C[C@H](O)c1cc(Cl)cc(Cl)c1O
Reply: -0.217

Ask: Read off the recorded z-score for CCN(CC)c1ccc(N2CC=CC34O[C@@H]5/C=C\CCC(C)OC(=O)C5[C@H]3C(=O)N(C(C)CO)[C@@H]4C2=O)cc1 (stereo partly drawn)
Reply: -0.0588

Ask: Read off the recorded z-score for C[C@@]12COC[C@]13C=C(Br)[C@H](C2)[C@@]1(CO1)C3=O
Reply: 0.109

Ask: Read off the recorded z-score for CO[C@H]1O[C@H](CO)[C@@H](OC(=O)CCc2ccccc2)[C@H](OC(=O)c2cc3ccccc3[nH]2)[C@H]1OC(=O)c1cc2ccccc2[nH]1
Reply: 0.98

Ask: Read off the recorded z-score for COc1ccc([Si](C)(C)[C@H]2[C@H](CC(=O)N3Cc4ccccc4C[C@H]3CO)O[C@@]3(C(=O)N(Cc4ccc(N5C(=O)c6cccc7cccc5c67)cc4)c4ccccc43)[C@@H]2C)cc1
Reply: -0.0678

Ask: Read off the recorded z-score for CN1C=C(C(=O)OCCS(C)(=O)=O)C(C(=O)OCCS(C)(=O)=O)=CC(c2ccc(CO)cc2)=CC1c1cccs1 (stereo not drawn)
Reply: 0.574

Ask: Read off the recorded z-score for CN1C(=O)[C@@H]2[C@@H](CC(COc3ccccc3)=C([C@H](O)CCc3ccccc3)[C@@H]2CO)C1=O
Reply: 1.9

###

- EXPERIMENT: binders of probe aHhip on microarray, primary screen, stem cell growth factor project, biochemical, small-molecule microarray, fluorescence 635/667 (AID 1087);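 note: score merges spot fluorescence at 667nm with spot signal to noise ratio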
- MEASUREMENT_CONTEXT: higher = more signal
So basically: composite z-score at 0.06 or higher? That is Satisfied. Lower than 0.06? That is Not satisfied.

# example entries with known answers
COMPOUND	ASSIGNED_CATEGORY
CCCCC(=O)N(CCN1CCOCC1)[C@@H]1CC(C(=O)NCCO)=C[C@H](Oc2c(I)cc(CO)cc2OC)[C@H]1O	Not satisfied
COc1ccc(C(O)C2C=CC3C(=O)N(c4ccccc4)C(=O)C3N2Nc2ccccc2)cc1 (configuration not stated)	Satisfied

Ask: Check the entry COCCOC(=O)N1C(=O)[C@@]2(c3cc(C#CC4=CCCCC4)ccc31)[C@H](c1ccc(O)cc1)N1[C@H](c3ccccc3)[C@H](c3ccccc3)OC(=O)[C@H]1[C@@H]2C(=O)NC[C@H](O)c1ccccc1 : does composite z-score equal or exceed 0.06?
Reply: Not satisfied

Ask: Check the entry COC(=O)[C@@]1(Cc2ccccc2CN=[N+]=[N-])N=C(c2ccc(OCCCO)cc2)O[C@H]1c1ccccc1 : does composite z-score equal or exceed 0.06?
Reply: Not satisfied

Ask: Check the entry O=C1NC(=O)C2C1C=CC(C(O)c1ccccn1)N2Nc1ccc(Cl)cc1Cl (configuration not stated) : does composite z-score equal or exceed 0.06?
Reply: Satisfied

Ask: Check the entry COCCOC(=O)N1C(=O)[C@@]2(c3cc(C#CCNC(N)=O)ccc31)[C@H](c1ccc(OCCO)cc1)N1[C@H](c3ccccc3)[C@H](c3ccccc3)OC(=O)[C@H]1[C@@H]2C(N)=O : does composite z-score equal or exceed 0.06?
Reply: Satisfied

###

Measured composite z-score accompanies every entry in the list below.
- EXPERIMENT: small-molecule binders of probe aInhba, primary screen, biochemical, small-molecule microarray, 635/667 nm fluorescence (AID 1148);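 note: score merges 667nm spot fluorescence with signal-to-noise for antibody binding to printed compounds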
- MEASUREMENT_CONTEXT: higher = more signal

MOLECULE	composite z-score
COc1ccc(C(O)C2C=CC3C(=O)N(c4ccccc4)C(=O)C3N2Nc2ccccc2F)cc1 (stereo not drawn)	1.52
O=C(NCC(O)CO)[C@@]1(CCS(=O)(=O)c2ccccc2)COC(c2ccc(OCCCO)cc2)=N1 (stereo partly drawn)	0.228
CCCNC(=O)[C@@]1(Sc2ccc(C)cc2)CC(=O)N(C2CCCCC2)[C@@H]1c1ccc(CO)cc1I	-0.198
C=C(COC)C(=O)CC[C@H](OC(C)=O)c1ccc(OCCO)cc1	-0.0675
COCC1C2CC[C@H]3C(OCc4ccc(OC)cc4)OC[C@]4(C)[C@H]3C2=C(CN4C(=O)OC(C)(C)C)[C@H](C)C1COC (stereo partly drawn)	-0.321

Ask: Read off the recorded composite z-score for COCCOC(=O)N1C(=O)[C@@]2(c3ccccc31)[C@H](c1ccccc1OCCO)N1[C@H](c3ccccc3)[C@H](c3ccccc3)OC(=O)[C@H]1[C@@H]2C(=O)N1CCCCCCC1
Reply: 2.24

Ask: Read off the recorded composite z-score for COc1ccc([Si](C)(C)[C@@H]2[C@@H](CCn3cc([C@H](O)c4ccccc4)nn3)O[C@]3(C(=O)N(c4ccccc4)c4ccccc43)[C@H]2C)cc1
Reply: -0.22

Ask: Read off the recorded composite z-score for CCCCC=C[C@@H](NC(=O)c1ccccc1)c1ccccc1
Reply: 0.162
